Test system: CV-A24
Test: microbe, parasite or virus in culture
Type: cell-based, coxsackievirus A24
Details: Enterovirus C, CVA24, HeLa R19, read-out: EC50 CV-A24
Recorded measurements of EC50, one per entry

[
  {
    "compound": "COc1ccc(N(Cc2ccc(F)cc2)C(=O)c2cc[nH]c2)cc1 [Compound 12a]",
    "EC50": "3.51 µM"
  },
  {
    "compound": "COc1ccc(N(Cc2ccc(F)cc2)C(=O)c2cccs2)cc1",
    "EC50": "> 30 µM"
  },
  {
    "compound": "O=C(c1ccco1)N(Cc1ccc(S(F)(F)(F)(F)F)cc1)c1ccccc1 [Compound 19f]",
    "EC50": "> 30 µM"
  },
  {
    "compound": "CC(C)c1ccc(CN(C(=O)c2ccco2)c2ccccc2)cc1 [Compound 19h]",
    "EC50": "> 30 µM"
  },
  {
    "compound": "COc1ccc(N(Cc2ccc(F)cc2)C(=O)c2ccccn2)cc1",
    "EC50": "> 30 µM"
  }
]
